target: Type-1 angiotensin II receptor (Oryctolagus cuniculus) (UniProt P34976); assay: In vitro antagonist activity of compound towards angiotensin II like was measured in rabbit aorta assay; conditions: target entry is the homologue from another species
Sequence (P34976 whole entry, looked up): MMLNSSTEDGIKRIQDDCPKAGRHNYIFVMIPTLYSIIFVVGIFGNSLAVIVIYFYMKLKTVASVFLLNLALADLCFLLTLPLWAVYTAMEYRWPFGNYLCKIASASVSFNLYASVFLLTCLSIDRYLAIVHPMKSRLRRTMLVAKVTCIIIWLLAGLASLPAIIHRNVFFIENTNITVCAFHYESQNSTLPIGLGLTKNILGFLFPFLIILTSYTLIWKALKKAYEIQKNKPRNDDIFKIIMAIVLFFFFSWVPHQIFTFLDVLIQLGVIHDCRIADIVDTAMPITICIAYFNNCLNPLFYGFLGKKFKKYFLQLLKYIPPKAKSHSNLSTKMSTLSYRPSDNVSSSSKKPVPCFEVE
Square brackets hold non-standard residues; d marks the D form. Peptide text beside a SMILES is read from it. Thz(5,5-Me2) = CC1(C)SCN[C@@H]1C(=O)O; Pen = CC(C)(S)[C@H](N)C(=O)O; Nle = CCCC[C@H](N)C(=O)O; Sar = CNCC(=O)O
Measurement label: pA2

| Compound | pA2 |
| --- | --- |
| CC[C@H](C)[C@H](NC(=O)[C@@H]1CCCN1C(=O)[C@H](Cc1c[nH]cn1)NC(=O)[C@@H](NC(=O)[C@H](Cc1ccc(O)cc1)NC(=O)[C@@H](NC(=O)[C@H](CCCN=C(N)N)NC(=O)CNC)C(C)C)C(C)(C)SC)C(=O)O (H-[Sar]RVY[Pen](Me)HPI-OH) | 9 |
| CC[C@H](C)[C@H](NC(=O)[C@@H]1CCCN1C(=O)[C@H](Cc1c[nH]cn1)NC(=O)[C@H](CCC(=O)O)NC(=O)[C@H](Cc1ccc(O)cc1)NC(=O)[C@@H](NC(=O)[C@H](CCCN=C(N)N)NC(=O)CNC)C(C)C)C(=O)O | 9 |
| CC[C@H](C)[C@H](NC(=O)[C@@H]1CCCN1C(=O)[C@H](Cc1c[nH]cn1)NC(=O)[C@H]1N(C(=O)[C@H](Cc2ccc(O)cc2)NC(=O)[C@@H](NC(=O)[C@H](CCCN=C(N)N)NC(=O)CNC)C(C)C)CSC1(C)C)C(=O)O (H-[Sar]RVY[Thz(5,5-Me2)]HPI-OH) | 9 |
| CCCC[C@H](NC(=O)[C@H](Cc1ccc(O)cc1)NC(=O)[C@@H](NC(=O)[C@H](CCCN=C(N)N)NC(=O)CNC)C(C)C)C(=O)N[C@@H](Cc1c[nH]cn1)C(=O)N1CCC[C@H]1C(=O)N[C@H](C(=O)O)[C@@H](C)CC (H-[Sar]RVY[Nle]HPI-OH) | 8.85 |
| CC[C@H](C)[C@H](NC(=O)[C@@H]1CCCN1C(=O)[C@H](Cc1c[nH]cn1)NC(=O)[C@H](CCCCN)NC(=O)[C@H](Cc1ccc(O)cc1)NC(=O)[C@@H](NC(=O)[C@H](CCCN=C(N)N)NC(=O)CNC)C(C)C)C(=O)O (H-[Sar]RVYKHPI-OH) | 8.7 |

###

test system: Rattus norvegicus; test: In vivo antagonistic activity was measured in the rat blood pressure assay; type: functional
Square brackets hold non-standard residues; d marks the D form. Peptide text beside a SMILES is read from it. Sar = CNCC(=O)O
Measurement label: ID50 (ng min-1 rat-1)
Reply numerically in ng min-1 rat-1, unit not repeated.

| Compound | ID50 (ng min-1 rat-1) |
| --- | --- |
| CC[C@H](C)[C@H](NC(=O)[C@@H]1CCCN1C(=O)[C@H](Cc1c[nH]cn1)NC(=O)[C@H](C)NC(=O)[C@H](Cc1ccc(O)cc1)NC(=O)[C@@H](NC(=O)[C@H](CCCN=C(N)N)NC(=O)CNC)C(C)C)C(=O)O (H-[Sar]RVYAHPI-OH) | 50 |

// moving on: another record for ID50
Task item: Which ID50 value belongs to CC[C@H](C)[C@H](NC(=O)[C@@H]1CCCN1C(=O)[C@H](Cc1c[nH]cn1)NC(=O)[C@H](Cc1ccccc1)NC(=O)[C@H](Cc1ccc(O)cc1)NC(=O)[C@@H](NC(=O)[C@H](CCCN=C(N)N)NC(=O)CNC)C(C)C)C(=O)O (H-[Sar]RVYFHPI-OH) ?
Reply: 100

###

system: Rattus norvegicus; assay: In vivo antagonistic activity was measured in the rat blood pressure assay; format: functional
Square brackets hold non-standard residues; d marks the D form. Peptide text beside a SMILES is read from it. Sar = CNCC(=O)O
Measurement label: ID50 (ng min-1 rat-1)
Reply with just the number (in ng min-1 rat-1).

| Molecule | Target or system | Measurement unit | ID50 |
| --- | --- | --- | --- |
| CC[C@H](C)[C@H](NC(=O)[C@@H]1CCCN1C(=O)[C@H](Cc1c[nH]cn1)NC(=O)[C@H](CCCN=C(N)N)NC(=O)[C@H](Cc1ccc(O)cc1)NC(=O)[C@@H](NC(=O)[C@H](CCCN=C(N)N)NC(=O)CNC)C(C)C)C(=O)O (H-[Sar]RVYRHPI-OH) | Rattus norvegicus | ng min-1 rat-1 | 15 |

Now look at this one.
Task item: Lookup: ID50 / Rattus norvegicus / `CC[C@H](C)[C@H](NC(=O)[C@@H]1CCCN1C(=O)[C@H](Cc1c[nH]cn1)NC(=O)[C@H](NC(=O)[C@H](Cc1ccc(O)cc1)NC(=O)[C@@H](NC(=O)[C@H](CCCN=C(N)N)NC(=O)CNC)C(C)C)c1ccccc1)C(=O)O`
Reply: 5.5

###

tested on: Rattus norvegicus; experiment: In vivo antagonistic activity was measured in the rat blood pressure assay; assay type: functional
Square brackets hold non-standard residues; d marks the D form. Peptide text beside a SMILES is read from it. Pen = CC(C)(S)[C@H](N)C(=O)O; Sar = CNCC(=O)O
Measurement label: ID50 (ng min-1 rat-1)
Entry rule: numbers only, all in ng min-1 rat-1.

| Compound | Measurement label | Measurement unit | Readout number |
| --- | --- | --- | --- |
| CC[C@H](C)[C@H](NC(=O)[C@@H]1CCCN1C(=O)[C@H](Cc1c[nH]cn1)NC(=O)[C@H](CCC(=O)O)NC(=O)[C@H](Cc1ccc(O)cc1)NC(=O)[C@@H](NC(=O)[C@H](CCCN=C(N)N)NC(=O)CNC)C(C)C)C(=O)O | ID50 | ng min-1 rat-1 | 100 |

Below: the item to evaluate.
Task item: Returns the measured ID50 for the input compound. Input: CC[C@H](C)[C@H](NC(=O)[C@@H]1CCCN1C(=O)[C@H](Cc1c[nH]cn1)NC(=O)[C@@H](NC(=O)[C@H](Cc1ccc(O)cc1)NC(=O)[C@@H](NC(=O)[C@H](CCCN=C(N)N)NC(=O)CNC)C(C)C)C(C)(C)SC)C(=O)O (H-[Sar]RVY[Pen](Me)HPI-OH)
Reply: 20

###

tested on: Rattus norvegicus; assay: In vivo antagonistic activity was measured in the rat blood pressure assay; type: functional
Numbered stars: 1 amine (or outer) side, 2 acyl side, 3 side chain; on linkers, the order of the positions; unused ones are H or OH. Square brackets hold non-standard residues; d marks the D form. Peptide text beside a SMILES is read from it. X1 = CC(c1ccccc1)[C@H](N[*:1])C(=O)[*:2]; Nle = CCCC[C@H](N)C(=O)O; Sar = CNCC(=O)O
Examples of molecules with documented ID50 follow.
Please state the figure in ng min-1 rat-1; there is no need to write the unit.

| Molecule | ID50, ng min-1 rat-1 |
| --- | --- |
| CC[C@H](C)[C@H](NC(=O)[C@@H]1CCCN1C(=O)[C@H](Cc1c[nH]cn1)NC(=O)[C@@H](NC(=O)[C@H](Cc1ccc(O)cc1)NC(=O)[C@@H](NC(=O)[C@H](CCCN=C(N)N)NC(=O)CNC)C(C)C)C(C)c1ccccc1)C(=O)O (some centres undefined) (H-[Sar]RVY[X1]HPI-OH) | 7.5 |

Task item: ID50 for `CC[C@H](C)[C@H](NC(=O)[C@@H]1CCCN1C(=O)[C@H](Cc1c[nH]cn1)NC(=O)[C@H](Cc1c[nH]cn1)NC(=O)[C@H](Cc1ccc(O)cc1)NC(=O)[C@@H](NC(=O)[C@H](CCCN=C(N)N)NC(=O)CNC)C(C)C)C(=O)O` ?
Reply: 5

Task item: Query `CC[C@H](C)[C@H](NC(=O)[C@@H]1CCCN1C(=O)[C@H](Cc1c[nH]cn1)NC(=O)[C@H](Cc1c[nH]c2ccccc12)NC(=O)[C@H](Cc1ccc(O)cc1)NC(=O)[C@@H](NC(=O)[C@H](CCCN=C(N)N)NC(=O)CNC)C(C)C)C(=O)O` next
Reply: 50

Task item: Cool, now CCCC[C@H](NC(=O)[C@H](Cc1ccc(O)cc1)NC(=O)[C@@H](NC(=O)[C@H](CCCN=C(N)N)NC(=O)CNC)C(C)C)C(=O)N[C@@H](Cc1c[nH]cn1)C(=O)N1CCC[C@H]1C(=O)N[C@H](C(=O)O)[C@@H](C)CC (H-[Sar]RVY[Nle]HPI-OH)
Reply: 20

###

tested on: Rattus norvegicus; test: In vivo antagonistic activity was measured in the rat blood pressure assay; assay type: functional
Square brackets hold non-standard residues; d marks the D form. Peptide text beside a SMILES is read from it. Thz(5,5-Me2) = CC1(C)SCN[C@@H]1C(=O)O; hPhe = N[C@@H](CCc1ccccc1)C(=O)O; Sar = CNCC(=O)O
Measurement label: ID50 (ng min-1 rat-1)
Please give a number only; it is taken to be in ng min-1 rat-1.

Worked cases, answers included:
| Compound | Measurement unit | ID50 |
| --- | --- | --- |
| CC[C@H](C)[C@H](NC(=O)[C@@H]1CCCN1C(=O)[C@H](Cc1c[nH]cn1)NC(=O)[C@H]1N(C(=O)[C@H](Cc2ccc(O)cc2)NC(=O)[C@@H](NC(=O)[C@H](CCCN=C(N)N)NC(=O)CNC)C(C)C)CSC1(C)C)C(=O)O (H-[Sar]RVY[Thz(5,5-Me2)]HPI-OH) | ng min-1 rat-1 | 25 |
| CC[C@H](C)[C@H](NC(=O)[C@@H]1CCCN1C(=O)[C@H](Cc1c[nH]cn1)NC(=O)[C@H](Cc1ccc(O)cc1)NC(=O)[C@H](Cc1ccc(O)cc1)NC(=O)[C@@H](NC(=O)[C@H](CCCN=C(N)N)NC(=O)CNC)C(C)C)C(=O)O | ng min-1 rat-1 | 50 |

Task item: Which value of ID50 has been reported for CC[C@H](C)[C@H](NC(=O)[C@@H]1CCCN1C(=O)[C@H](Cc1c[nH]cn1)NC(=O)[C@H](CCCCN)NC(=O)[C@H](Cc1ccc(O)cc1)NC(=O)[C@@H](NC(=O)[C@H](CCCN=C(N)N)NC(=O)CNC)C(C)C)C(=O)O (H-[Sar]RVYKHPI-OH) in the records?
Reply: 50

Task item: Follow-up item: CC[C@H](C)[C@H](NC(=O)[C@@H]1CCCN1C(=O)[C@H](Cc1c[nH]cn1)NC(=O)[C@H](CCc1ccccc1)NC(=O)[C@H](Cc1ccc(O)cc1)NC(=O)[C@@H](NC(=O)[C@H](CCCN=C(N)N)NC(=O)CNC)C(C)C)C(=O)O (H-[Sar]RVY[hPhe]HPI-OH)
Reply: 20
